- System: Plutella xylostella (Diamond back moth) ryanodine receptor, containing the G4946E resistance mutation
- TEST NAME: In vitro calcium fluorescence assay (Fluo-8 NW, FDSS) in human embryonic kidney cells expressing the ryanodine receptor
- Assay type: cell-based
- ASSAY CONDITIONS: table; EC50 (compound)/EC50 (cyantraniliprole); G4946E RyR in HEK cells
Give measured REC50 (Compound of the invention) for each item. Keep answers brief.
Numbers only.

1. Cc1cc(Cl)cc(C(N)=O)c1NC(=O)c1cc(OCC(F)(F)C(F)(F)F)nn1-c1ncccc1Cl [Compound P8] = 0.14
2. COc1cc(C(=O)Nc2c(C)cc(Br)cc2C(N)=O)n(-c2ncccc2Cl)n1 [Compound P45] = 0.24
3. Cc1cc(Cl)cc(C(N)=O)c1NC(=O)c1cc(C(F)(F)F)nn1-c1ncccc1Cl [Compound P25] = 0.18
4. Cc1cc(C#N)cc(C(N)=O)c1NC(=O)c1cc(Cn2nnc(-c3ccc(C(F)(F)F)cc3)n2)nn1-c1ncccc1Cl [Compound P67] = 0.63
5. Cc1cc(Br)cc(C(N)=O)c1NC(=O)c1cc(C(F)(F)F)nn1-c1ncccc1Cl [Compound P26] = 0.19
6. NC(=O)c1cc(Cl)cc(Br)c1NC(=O)c1cc(Br)nn1-c1ncccc1Cl [Compound P34] = 0.18

Would you be so kind as to report REC50 (Compound of the invention) for each listed record?
1. NC(=O)c1cc(Cl)cc(Cl)c1NC(=O)c1cc(Br)nn1-c1ncc(Cl)cc1Cl [Compound P33]
2. Cc1cc(Cl)cc(C(N)=O)c1NC(=O)c1cc(C2CC2)nn1-c1ncccc1Cl [Compound P76]
3. Cc1cc(Cl)cc(C(N)=O)c1NC(=O)c1cc(OCC(F)(F)F)nn1-c1ncccc1Cl [Compound P23]
4. Cc1cc(I)cc(C(N)=O)c1NC(=O)c1cc(Br)nn1-c1ncccc1Cl [Compound P63]
5. Cc1cc(Cl)cc(C(N)=O)c1NC(=O)c1cc(Br)nn1-c1ncccc1Cl [Compound P24]
6. NC(=O)c1cc(Br)cc(Br)c1NC(=O)c1cc(C(F)(F)F)nn1-c1ncccc1Cl [Compound P46]

0.31
0.42
0.17
0.19
0.18
0.39

Would you be so kind as to report REC50 (Compound of the invention) for each listed record?
1. Cc1cc(Cl)cc(C(N)=O)c1NC(=O)c1cc(OC(F)F)nn1-c1ncccc1Cl [Compound P21]
2. COc1cc(C(=O)Nc2c(C)cc(Cl)cc2C(N)=O)n(-c2ncccc2Cl)n1 [Compound P9]
3. COc1cc(C(=O)Nc2c(Cl)cc(Br)cc2C(N)=O)n(-c2ncccc2Cl)n1 [Compound P47]
4. NC(=O)c1cc(I)cc(F)c1NC(=O)c1cc(C(F)(F)F)nn1-c1ncccc1Cl [Compound P64]
5. Cc1cc(I)cc(C(N)=O)c1NC(=O)c1cc(C(F)(F)F)nn1-c1ncccc1Cl [Compound P27]

1. 0.25
2. 0.37
3. 0.61
4. 0.69
5. 0.18

Would you be so kind as to report REC50 (Compound of the invention) for each listed record?
1. Cc1cc(C#N)cc(C(N)=O)c1NC(=O)c1cc(Br)nn1-c1ncccc1Cl [Compound P30]
2. Cc1cc(C#N)cc(C(N)=O)c1NC(=O)c1cc(C(F)(F)F)nn1-c1ncccc1Cl [Compound P31]
3. Cc1cc(Cl)cc(C(N)=O)c1NC(=O)c1cc(COCc2ccc(Cl)cc2)nn1-c1ncccc1Cl [Compound P5]

1: 0.39; 2: 0.28; 3: 0.31

Would you be so kind as to report REC50 (Compound of the invention) for each listed record?
1. COc1cc(C(=O)Nc2c(Cl)cc(Cl)cc2C(N)=O)n(-c2ncccc2Cl)n1 [Compound P59]
2. CCc1cc(C(=O)Nc2c(C)cc(Cl)cc2C(N)=O)n(-c2ncccc2Cl)n1 [Compound P75]

1: 0.62; 2: 0.69

* * *

Give measured melting point for each item. Keep answers brief.

1. COc1cc(C(=O)Nc2c(Cl)cc(Br)cc2C(N)=O)n(-c2ncccc2Cl)n1 = 160 to 165 °C
2. NC(=O)c1cc(Cl)cc(Br)c1NC(=O)c1cc(Cn2cc(C(F)(F)F)nn2)nn1-c1ncccc1Cl = > 250 °C
3. Cc1cc(Cl)cc(C(N)=O)c1NC(=O)c1cc(CC#N)nn1-c1ncccc1Cl = 180 to 185 °C
4. NC(=O)c1cc(Br)cc(F)c1NC(=O)c1cc(Cn2nnc(C(F)(F)F)n2)nn1-c1ncccc1Cl = 110 to 115 °C
5. COc1cc(C(=O)Nc2c(Cl)cc(Cl)cc2C(N)=O)n(-c2ncccc2Cl)n1 = 155 to 160 °C
6. Cc1cc(Br)cc(C(N)=O)c1NC(=O)c1cc(I)nn1-c1ncccc1Cl = > 250 °C
7. COc1cc(C(=O)Nc2c(Br)cc(Cl)cc2C(N)=O)n(-c2ncccc2Cl)n1 = 205 to 210 °C

Now for another entry.
// field: melting point; key: "CCc1cc(C(=O)Nc2c(C)cc(Cl)cc2C(N)=O)n(-c2ncccc2Cl)n1" ; value = 245 to 250 °C

* * *

Give measured melting point for each item. Keep answers brief.

# annotated cases, reported melting point shown
1) Cc1cc(Cl)cc(C(N)=O)c1NC(=O)c1cc(COCc2ccc(Cl)cc2)nn1-c1ncccc1Cl = 174 to 176 °C
2) Cc1cc(Br)cc(C(N)=O)c1NC(=O)c1cc(Cn2cc(C(F)(F)F)nn2)nn1-c1ncccc1Cl = 190 to 195 °C
3) Cc1cc(Cl)cc(C(N)=O)c1NC(=O)c1cc(C2(F)CC2)nn1-c1ncccc1Cl = 225 to 230 °C
4) NC(=O)c1cc(Br)cc(Cl)c1NC(=O)c1cc(Cn2ncc(C(F)(F)F)n2)nn1-c1ncccc1Cl = 185 to 190 °C
5) Cc1cc(C#N)cc(C(N)=O)c1NC(=O)c1cc(COCc2ccc(Cl)cc2)nn1-c1ncccc1Cl = 109 to 112 °C
6) Cc1cc(Cl)cc(C(N)=O)c1NC(=O)c1cc(Br)nn1-c1ncccn1 = 187 to 198 °C
7) COCc1cc(C(=O)Nc2c(C)cc(Cl)cc2C(N)=O)n(-c2ncccc2Cl)n1 = 225 to 230 °C
8) Cc1cc(Cl)cc(C(N)=O)c1NC(=O)c1cc(C2(C#N)CC2)nn1-c1ncccc1Cl = 225 to 230 °C
9) Cc1cc(I)cc(C(N)=O)c1NC(=O)c1cc(C(F)F)nn1-c1ncccc1Cl = 155 to 160 °C
10) Cc1cc(Cl)cc(C(N)=O)c1NC(=O)c1cc(C[S+](C)[O-])nn1-c1ncccc1Cl (centres unmarked) = 125 to 130 °C

Would you be so kind as to report melting point for each listed record?
1. CSCc1cc(C(=O)Nc2c(C)cc(Cl)cc2C(N)=O)n(-c2ncccc2Cl)n1
2. COc1cc(C(=O)Nc2c(C)cc(Br)cc2C(N)=O)n(-c2ncccc2Cl)n1
3. Cc1cc(Cl)cc(C(N)=O)c1NC(=O)c1cc(CS(C)(=O)=O)nn1-c1ncccc1Cl

175 to 180 °C
210 to 215 °C
140 to 145 °C

// field: melting point; key: "NC(=O)c1cc(Br)cc(Cl)c1NC(=O)c1cc(Cn2cc(C(F)(F)F)nn2)nn1-c1ncccc1Cl" ; value = 135 to 140 °C

* * *

- System: Resistant Plutella xylostella R1 (multi-resistant larvae having the G4946E resistance mutation)
- TEST NAME: Resistant Plutella xylostella R1 (Diamond back moth) larvicide L3, feeding/contact, sprayed Chinese cabbage leaves
- Format: in vivo
- ASSAY CONDITIONS: Plutella xylostella, 96 h, read-out: control of the resistant strain of Plutella xylostella R1
QUANTITY MEASURED: pest or weed control at 50 µg/mL

# annotated cases, reported pest or weed control at 50 µg/mL shown
1) Cc1cc(I)cc(C(N)=O)c1NC(=O)c1cc(OCC(F)(F)F)nn1-c1ncccc1Cl = ≥ 80%
2) Cc1cc(C#N)cc(C(N)=O)c1NC(=O)c1cc(C(F)F)nn1-c1ncccc1Cl = ≥ 80%
3) Cc1cc(Cl)cc(C(N)=O)c1NC(=O)c1cc(C2CC2)nn1-c1ncccc1Cl = ≥ 80%

Would you be so kind as to report pest or weed control at 50 µg/mL for each listed record?
1. Cc1cc(I)cc(C(N)=O)c1NC(=O)c1cc(C(F)(F)F)nn1-c1ncccc1Cl
2. Cc1cc(Br)cc(C(N)=O)c1NC(=O)c1cc(Cn2ncc(C(F)(F)F)n2)nn1-c1ncccc1Cl
3. Cc1cc(Br)cc(C(N)=O)c1NC(=O)c1cc(Cn2nnc(-c3ccc(C(F)(F)F)cc3)n2)nn1-c1ncccc1Cl
4. Cc1cc(Cl)cc(C(N)=O)c1NC(=O)c1cc(OCC(F)(F)C(F)(F)F)nn1-c1ncccc1Cl
5. Cc1cc(Cl)cc(C(N)=O)c1NC(=O)c1cc(Cn2nnnc2-c2ccc(C(F)(F)F)cc2)nn1-c1ncccc1Cl
6. NC(=O)c1cc(Cl)cc(Cl)c1NC(=O)c1cc(Br)nn1-c1ncc(Cl)cc1Cl
7. Cc1cc(Cl)cc(C(N)=O)c1NC(=O)c1cc(C(F)(F)F)nn1-c1ncccc1Cl

≥ 80%
≥ 80%
≥ 80%
≥ 80%
≥ 80%
≥ 80%
≥ 80%

Would you be so kind as to report pest or weed control at 50 µg/mL for each listed record?
1. Cc1cc(I)cc(C(N)=O)c1NC(=O)c1cc(Cn2nnc(-c3ccc(C(F)(F)F)cc3)n2)nn1-c1ncccc1Cl
2. COc1cc(C(=O)Nc2c(C)cc(I)cc2C(N)=O)n(-c2ncccc2Cl)n1

1. ≥ 80%
2. ≥ 80%
